Origin of the recorded values: ChEMBL document CHEMBL4428091

assay notes: Clearance in rat at 1 mg/kg, iv
Type: ADME, organism-based
condition set: in vivo
property label: clearance (mL/min/kg)

[[record]]
compound_structure_string = "COc1ccc2c(c1)[C@]1(C[C@H]1c1ccc3c(-c4ccc(N5CCN(C)CC5)nc4)n[nH]c3c1)C(=O)N2"
display_unit = "mL/min/kg"
recorded_value = 63.3

[[record]]
compound_structure_string = "CCN1CCN(c2ccc(-c3n[nH]c4cc([C@@H]5C[C@@]56C(=O)Nc5ccc(OC)cc56)ccc34)cc2)CC1"
display_unit = "mL/min/kg"
recorded_value = 55

[[record]]
compound_structure_string = "COc1ccc2c(c1)[C@]1(C[C@H]1c1ccc3c(-c4ccc(N5CCN(C)CC5)cc4)n[nH]c3c1)C(=O)N2"
display_unit = "mL/min/kg"
recorded_value = 68.3

